B1: Chromodomain-helicase-DNA-binding protein 3, residues 374 to 426; numbered along this chain, Q12873 (parent)
chain: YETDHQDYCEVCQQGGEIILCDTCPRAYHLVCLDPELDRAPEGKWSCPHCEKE

Variants of: B1
Experiment: abundance fitness (aPCA) (normalised: wild type 0, dead -1); higher = more abundant; growth selection in yeast, the domain comes from the species named
Details: Homo sapiens
// abundance fitness lookup, one value per entry
property: abundance fitness

variant.key	readout.number
H5L	0.161
Y28A	0.122
C12F	-0.903
C9D	-0.743
C12S	-0.956
T3M	0.377
I19L	0.093
H29F	-1.07
E2Q	0.231
V11A	-0.143
E36D	-0.507
L33T	-0.208

All figures here come from the Human Domainome abundance scans (Beltran et al. 2025).
